Readout Kind: boiling point

- Compound: "CCOC(=O)c1ccc2c(c1)OCO2"
  Value: "286 °C"
- Compound: "CCC(=O)CCC(C)C"
  Value: "164 °C"
- Compound: "CCC(Br)C(Br)Br (stereo not drawn)"
  Value: "216 °C"

---

- Chem Smiles: "O=[N+]([O-])c1ccc(Nc2ccc(O)cc2)c([N+](=O)[O-])c1"
  log10 vapour pressure (mmHg): -11.4
- Chem Smiles: "O=C(Cl)c1ccccc1"
  log10 vapour pressure (mmHg): -0.155
- Chem Smiles: "CCCSC(=O)N(CCC)CCC"
  log10 vapour pressure (mmHg): -1.98
- Chem Smiles: "CC(C)CCC(C)C"
  log10 vapour pressure (mmHg): 1.48
- Chem Smiles: "CCCCC"
  log10 vapour pressure (mmHg): 2.71

---

In plain terms, low boiling point, meaning strictly below 200 °C, gives Condition met, and everything else gives Condition not met.

- Compound: "CCCCCCC(=O)OCCCCC"
  Label Value: "Condition not met"
- Compound: "CC(=O)Nc1ccc2c(c1)Cc1ccccc1-2"
  Label Value: "Condition not met"
- Compound: "Cc1ccc(N)c(Cl)c1"
  Label Value: "Condition not met"
- Compound: "Cc1ccc(C=O)o1"
  Label Value: "Condition met"
- Compound: "C(CCOCC1CO1)COCC1CO1 (stereo not drawn)"
  Label Value: "Condition not met"
- Compound: "O=C(C1CC1)C1CC1"
  Label Value: "Condition met"
- Compound: "CCC=C(C)CC"
  Label Value: "Condition met"
- Compound: "CC(C)CC(C)C"
  Label Value: "Condition met"
- Compound: "CCCC(C)(C)C"
  Label Value: "Condition met"
- Compound: "C=CBr"
  Label Value: "Condition met"
- Compound: "CC(Cl)CC(C)Cl (stereo not drawn)"
  Label Value: "Condition met"
- Compound: "CCCCCCCCOc1ccccc1"
  Label Value: "Condition not met"

---

We use 100 °C as the dividing line for melting point: on or above the line is YES, below is NO.

- Compound: "C1SSCSSS1"
  Label Value: "NO"
- Compound: "Nc1nncs1"
  Label Value: "YES"
- Compound: "O[C@H]1[C@H](O)[C@@H](O)[C@H](O)[C@@H](O)[C@H]1O (racemic)"
  Label Value: "YES"
- Compound: "CCc1ccc2c(c1)CCCC2"
  Label Value: "NO"
- Compound: "FC(F)C(F)(F)Cl"
  Label Value: "NO"
- Compound: "C=CCN1CC[C@]23c4c5ccc(O)c4O[C@H]2[C@@H](O)C=C[C@H]3[C@H]1C5"
  Label Value: "YES"
- Compound: "O=P(O)(O)CCCl"
  Label Value: "NO"
- Compound: "O=S(=O)(O)c1ccc2cc(O)ccc2c1"
  Label Value: "YES"
- Compound: "Cc1cccc(NC(=O)c2ccccc2)c1"
  Label Value: "YES"
- Compound: "COCC(=O)c1ccccc1"
  Label Value: "NO"
- Compound: "O=[N+]([O-])c1ccc(N=Nc2ccc(N(CCO)CCO)cc2Cl)cc1"
  Label Value: "YES"
- Compound: "Cc1c(C)c(C)c(C)c(C)c1C"
  Label Value: "YES"
- Compound: "Nc1cccc2ccccc12"
  Label Value: "NO"
- Compound: "C=C=C"
  Label Value: "NO"
- Compound: "CC1=C(C)C(=O)C=CC1=O"
  Label Value: "NO"
- Compound: "CC(=O)NCCCCCC(=O)O"
  Label Value: "YES"
- Compound: "CCC(C)(S(=O)(=O)CC)S(=O)(=O)CC"
  Label Value: "NO"
- Compound: "CNC(=O)O/N=C/C(C)(C)S(C)(=O)=O"
  Label Value: "YES"
- Compound: "Clc1c(Br)c(Br)c2c(c1Br)Oc1c(Br)c(Br)c(Cl)c(Br)c1O2"
  Label Value: "YES"
- Compound: "CN1CCCC1=O"
  Label Value: "NO"
- Compound: "CCCCOC"
  Label Value: "NO"
- Compound: "CCCCCCCI"
  Label Value: "NO"
- Compound: "N#Cc1ccccc1[N+](=O)[O-]"
  Label Value: "YES"
- Compound: "CCOC(=O)C1(S(=O)(=O)c2ccc(C)cc2)CC1"
  Label Value: "NO"
- Compound: "Cc1ccc(N(SC(F)(Cl)Cl)S(=O)(=O)N(C)C)cc1"
  Label Value: "NO"
- Compound: "CC(=O)Oc1ccccc1C(=O)OC(=O)c1ccccc1OC(C)=O"
  Label Value: "NO"
- Compound: "O=c1cccc[nH]1"
  Label Value: "YES"
- Compound: "N#Cc1cccc(F)c1"
  Label Value: "NO"
- Compound: "C=CC(C)(C)C"
  Label Value: "NO"
- Compound: "CC[C@H](CC[C@@H](C)[C@H]1CC[C@H]2[C@@H]3CC=C4C[C@@H](O)CC[C@]4(C)[C@H]3CC[C@]12C)C(C)C"
  Label Value: "YES"
- Compound: "C[N+](C)(C)c1ccccc1.[I-]"
  Label Value: "YES"
- Compound: "CCCCCCCCC=CCCCCCCCC(=O)Nc1ccccc1"
  Label Value: "NO"
- Compound: "NS(=O)(=O)c1ccc(SCCO)c([N+](=O)[O-])c1"
  Label Value: "YES"
- Compound: "NC(=O)C(CCN1CCCCCC1)(c1ccccc1)c1ccccc1"
  Label Value: "YES"
- Compound: "CCCCCCCCCCCCCC(N)=O"
  Label Value: "YES"
- Compound: "COc1cc(NCc2ccc3nc(N)nc(N)c3c2C)cc(OC)c1OC"
  Label Value: "YES"
- Compound: "CC(C)(C(=O)c1cccnc1)c1cccnc1"
  Label Value: "NO"
- Compound: "ClC=CCl"
  Label Value: "NO"
- Compound: "O=c1[nH]c2ccccc2o1"
  Label Value: "YES"
- Compound: "CC(=O)N1CCCCC1"
  Label Value: "NO"
- Compound: "CNc1ccc(NC)c2c1C(=O)c1ccccc1C2=O"
  Label Value: "YES"
- Compound: "COc1nc2c(c(=O)n(C)c(=O)n2C)n1C"
  Label Value: "YES"
- Compound: "Cc1cc(Cl)cc(Cl)c1Cl"
  Label Value: "NO"
- Compound: "Clc1ccc(Cl)nn1"
  Label Value: "NO"
- Compound: "O=C(O)CCC(=O)Nc1ccccc1"
  Label Value: "YES"
- Compound: "Oc1ccccc1I"
  Label Value: "NO"
- Compound: "CCCCCCCCCCBr"
  Label Value: "NO"
- Compound: "COC(=O)c1cccc([N+](=O)[O-])c1"
  Label Value: "NO"
